I'd be grateful if you could share measured IC50 for these entries.
Target: rhIKK1/IKK2 heterodimer (Homo sapiens, UniProt O14920+O15111)
Construct: made in house; host or cells: insect cells (baculovirus coinfection; SF9)
Sequence (O14920 whole entry): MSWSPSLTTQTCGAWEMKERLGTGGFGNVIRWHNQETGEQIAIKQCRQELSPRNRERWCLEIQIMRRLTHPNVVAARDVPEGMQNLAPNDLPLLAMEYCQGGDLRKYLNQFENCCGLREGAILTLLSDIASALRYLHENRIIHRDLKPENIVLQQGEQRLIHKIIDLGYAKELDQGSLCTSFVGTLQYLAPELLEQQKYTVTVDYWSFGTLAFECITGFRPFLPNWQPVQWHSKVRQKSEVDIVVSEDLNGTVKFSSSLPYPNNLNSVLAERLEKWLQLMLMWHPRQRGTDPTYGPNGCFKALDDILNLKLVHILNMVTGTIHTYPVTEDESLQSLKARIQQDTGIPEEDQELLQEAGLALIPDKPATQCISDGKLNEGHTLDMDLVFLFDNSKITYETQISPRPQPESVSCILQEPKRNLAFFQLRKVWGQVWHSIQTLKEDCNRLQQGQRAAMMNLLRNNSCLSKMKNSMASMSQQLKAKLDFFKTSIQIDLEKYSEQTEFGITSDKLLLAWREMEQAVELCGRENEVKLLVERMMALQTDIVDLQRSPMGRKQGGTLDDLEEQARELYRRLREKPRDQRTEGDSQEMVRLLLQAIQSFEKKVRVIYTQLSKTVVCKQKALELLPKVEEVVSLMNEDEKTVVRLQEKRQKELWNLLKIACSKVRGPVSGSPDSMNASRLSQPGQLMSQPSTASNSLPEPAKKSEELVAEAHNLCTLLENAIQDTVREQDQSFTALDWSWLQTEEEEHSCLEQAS
Sequence (O15111 whole entry): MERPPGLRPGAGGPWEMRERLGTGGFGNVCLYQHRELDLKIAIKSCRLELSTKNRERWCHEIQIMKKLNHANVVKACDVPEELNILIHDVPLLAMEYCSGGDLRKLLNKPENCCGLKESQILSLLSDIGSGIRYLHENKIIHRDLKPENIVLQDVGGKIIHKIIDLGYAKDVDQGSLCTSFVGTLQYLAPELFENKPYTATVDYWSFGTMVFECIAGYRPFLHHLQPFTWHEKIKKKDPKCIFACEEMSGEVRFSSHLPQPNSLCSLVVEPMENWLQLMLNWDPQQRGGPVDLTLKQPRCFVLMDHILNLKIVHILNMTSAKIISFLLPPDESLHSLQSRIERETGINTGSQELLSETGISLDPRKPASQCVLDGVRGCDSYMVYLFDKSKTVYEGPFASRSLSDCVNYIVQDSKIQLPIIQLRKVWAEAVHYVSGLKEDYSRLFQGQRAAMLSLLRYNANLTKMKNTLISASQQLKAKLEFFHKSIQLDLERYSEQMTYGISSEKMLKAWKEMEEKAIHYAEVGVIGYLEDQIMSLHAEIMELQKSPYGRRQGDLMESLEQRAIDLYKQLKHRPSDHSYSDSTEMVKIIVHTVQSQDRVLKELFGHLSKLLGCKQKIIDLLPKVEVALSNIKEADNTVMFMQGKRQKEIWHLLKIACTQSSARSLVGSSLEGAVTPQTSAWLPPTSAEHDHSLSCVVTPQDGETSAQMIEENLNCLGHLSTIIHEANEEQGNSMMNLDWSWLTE
Assay: IKK Heterodimer Resin Enzyme Assay
Type: biochemical
Conditions: Table 1; values given as bins; read-out: HetD (IKK heterodimer assay values expressed as IC50)
Description: cDNAs of human IKK1 and IKK2 were amplified by reverse transcriptase-polymerase chain reaction from human placental RNA (Clonetech). hIKK1 was subcloned into pFastBac HTa (Life Technologies) and expressed as N-terminal His6-tagged fusion protein. […] Resin was allowed to settle for one hour and 50 ul of supernatant was removed to a Micolite-2 flat bottom plate (Dynex). […] ATP was measured using a Top-Count NXT (Packard).

Lookup: Form: Entry = NC(=O)c1nn(-c2ccc(S(N)(=O)=O)cc2)c2c1ccc1ccc(NC(=O)c3cccc(C(F)(F)F)c3)cc12 | System = rhIKK1/IKK2 heterodimer (Homo sapiens, UniProt O14920+O15111) | IC50 = ____
Found: 1000 to 10000 nM

Lookup: Hi! What's the reported IC50 for NC(=O)c1nn(-c2ccc(S(N)(=O)=O)cc2)c2c1ccc1ccc(NC(=O)c3c(Cl)cccc3Cl)cc12 on rhIKK1/IKK2 heterodimer (Homo sapiens, UniProt O14920+O15111)?
Found: ≤ 1000 nM

Lookup: Could you share what IC50 was measured for Cc1ccccc1C(=O)Nc1ccc2ccc3c(C(N)=O)nn(-c4ccc(S(N)(=O)=O)cc4)c3c2c1 , tested on rhIKK1/IKK2 heterodimer (Homo sapiens, UniProt O14920+O15111)?
Found: ≤ 1000 nM

Lookup: Query the reported IC50 for rhIKK1/IKK2 heterodimer (Homo sapiens, UniProt O14920+O15111); item: NC(=O)c1nn(-c2ccc(S(N)(=O)=O)cc2)c2c1ccc1ccc(NC(=O)c3ccccc3OC(F)(F)F)cc12
Found: ≤ 1000 nM

Lookup: Query IC50 on rhIKK1/IKK2 heterodimer (Homo sapiens, UniProt O14920+O15111) for Cc1cccc(C(=O)Nc2ccc3ccc4c(C(N)=O)nn(-c5ccc(S(N)(=O)=O)cc5)c4c3c2)c1
Found: ≤ 1000 nM

Lookup: Query for rhIKK1/IKK2 heterodimer (Homo sapiens, UniProt O14920+O15111): what IC50 does the record show for CC(=O)Nc1ccc2ccc3c(C(N)=O)nn(-c4ccc(S(N)(=O)=O)cc4)c3c2c1 ?
Found: ≤ 1000 nM

Lookup: rhIKK1/IKK2 heterodimer (Homo sapiens, UniProt O14920+O15111) / IC50 / NC(=O)c1nn(-c2ccc(S(N)(=O)=O)cc2)c2c1ccc1ccc(NC(=O)c3cccnc3)cc12 : value?
Found: ≤ 1000 nM

Lookup: So what IC50 did NC(=O)c1nn(-c2ccc(S(N)(=O)=O)cc2)c2c1ccc1ccc(NC(=O)c3cccnc3Cl)cc12 get with rhIKK1/IKK2 heterodimer (Homo sapiens, UniProt O14920+O15111)?
Found: ≤ 1000 nM

Lookup: Lab note: need IC50 with rhIKK1/IKK2 heterodimer (Homo sapiens, UniProt O14920+O15111) for entry NC(=O)c1nn(-c2ccc(S(N)(=O)=O)cc2)c2c1ccc1ccc(NS(=O)(=O)c3cc(C(F)(F)F)cc(C(F)(F)F)c3)cc12 , please look it up.
Found: 1000 to 10000 nM

Lookup: # query: IC50 | item NC(=O)c1nn(-c2ccc(S(N)(=O)=O)cc2)c2c1ccc1ccc(NC(=O)c3ccccc3C(F)(F)F)cc12 | system: rhIKK1/IKK2 heterodimer (Homo sapiens, UniProt O14920+O15111)
Found: ≤ 1000 nM

Lookup: Give rhIKK1/IKK2 heterodimer (Homo sapiens, UniProt O14920+O15111) IC50 for COc1cccc(C(=O)Nc2ccc3ccc4c(C(N)=O)nn(-c5ccc(S(N)(=O)=O)cc5)c4c3c2)c1
Found: ≤ 1000 nM

Lookup: Checklist item: IC50 tested on rhIKK1/IKK2 heterodimer (Homo sapiens, UniProt O14920+O15111), entry NC(=O)c1nn(-c2ccc(S(N)(=O)=O)cc2)c2c1ccc1ccc(NS(=O)(=O)c3ccccc3Cl)cc12 , value?
Found: 1000 to 10000 nM

Lookup: Missing value: IC50, rhIKK1/IKK2 heterodimer (Homo sapiens, UniProt O14920+O15111), entry NC(=O)c1nn(-c2ccc(S(N)(=O)=O)cc2)c2c1ccc1ccc(NS(=O)(=O)c3ccc(Cl)c(Cl)c3)cc12 . Fill in?
Found: 1000 to 10000 nM

Lookup: API: value(readout= IC50, system= rhIKK1/IKK2 heterodimer (Homo sapiens, UniProt O14920+O15111), query= NC(=O)c1nn(-c2ccc(S(N)(=O)=O)cc2)c2c1ccc1ccc(NS(=O)(=O)c3cc(Cl)c(Cl)cc3Cl)cc12 )
Found: 1000 to 10000 nM
